target: NHERF4_1, Q86UT5-2; assay: holdup assay; parameters: key: below the threshold = too weak to quantify, mostly under pKd 3.1 to 4; conditions: plain residues with an end cap or a label only (N-terminal biotin on a linker: ttds)
Sequence (Q86UT5 other isoform, or with tags, fused parts or gaps): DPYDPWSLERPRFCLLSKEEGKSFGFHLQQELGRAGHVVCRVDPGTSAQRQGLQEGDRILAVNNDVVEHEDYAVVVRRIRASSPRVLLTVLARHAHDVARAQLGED
Observed Property: pKd
Just the number, please, no unit after it.

1) GQDSREETQL [KCNT2, Q6UVM3] | 4.06

// switching to the query binder
Looking up IDNDTESTAL [ARHGAP17, Q68EM7] , I see its pKd listed as 4.16
